TEST NAME: NCI Yeast Anticancer Drug Screen. Data for the bub3 strain (AID 167)
EXPERIMENTAL CONTEXT: S. cerevisiae bub3 mutant strain, at 50.0 µM (retest, dose inferred, filed as 5.0), active compounds read high
Compounds without any hit were thinned out: in the full panel of roughly 79,000, 15% have a hit. Calls of active or inactive are those of the source. Cut-off read from the data, not from the text of the source: active = growth inhibition above about 70%; inactive = the rest.
ENDPOINT NAME: growth inhibition

MOLECULE: O/N=C(/C[n+]1csc2ccccc21)c1ccccc1
RESULT: 76% (active)
//
MOLECULE: Nc1nccc(NCCCCCCNc2ccnc(N)n2)n1
RESULT: 33% (inactive)
//
MOLECULE: CCCCCC(CCCCC)C(=O)O
RESULT: 29% (inactive)
//
MOLECULE: Cc1ccc(/C=C/C(=O)c2cc(CN(C)C)c(O)c(CN(C)C)c2)cc1
RESULT: 8% (inactive)
//
MOLECULE: N/N=C(\N)c1ccc2ccc3cccnc3c2n1
RESULT: 59% (inactive)
//
MOLECULE: CCOC(=O)C(NC(=O)C(CO)n1c(-c2ccccc2)c(-c2ccccc2)oc1=O)C(=O)OCC (configuration not stated)
RESULT: 51% (inactive)
//
MOLECULE: Cc1ccc2c(ccc3c[n+]4c5ccccc5ccc4n32)c1
RESULT: 99% (active)

----------
TEST NAME: NCI Yeast Anticancer Drug Screen. Data for the bub3 strain (AID 167)
EXPERIMENTAL CONTEXT: S. cerevisiae bub3 mutant strain, at 50.0 µM (retest, dose inferred, filed as 5.0)
The panel holds about 79,000 compounds, 15% with a hit somewhere; the sample as a whole holds those more often. Calls of active or inactive are those of the source. No stated cut-off is given here; in the data, active means growth inhibition above about 70%; inactive means the rest.
Outcome codes: True for active, False for inactive

COMPOUND: CC1=NC(=Cc2ccc(Cl)cc2)C(=O)N1n1c(-c2ccccc2)nc2ccccc2c1=O
ASSIGNED CATEGORY: True
--
COMPOUND: COc1ccc(OC)c(C(Cc2ccnc3ccccc23)Cc2ccnc3ccccc23)c1
ASSIGNED CATEGORY: True
--
COMPOUND: Cc1cc(O)c2c(c1)C(=O)c1c(c(O)cc(O)c1-c1c(O)cc(O)c3c1C(=O)c1cc(C)cc(O)c1C3=O)C2=O
ASSIGNED CATEGORY: False
--
COMPOUND: CN(C)CC(C)(C)/C(=N\Nc1ccccc1)c1ccccc1
ASSIGNED CATEGORY: True
--
COMPOUND: CC(C)(Sc1cc(Cl)c(Cl)c(Cl)c1)C(=O)OCCN1CCOCC1
ASSIGNED CATEGORY: True
--
COMPOUND: Cc1ccc(NC(=O)CSC(N)=O)cc1
ASSIGNED CATEGORY: True
--
COMPOUND: CC1CC(C)CC(NC2=NCCO2)C1 (centres undefined)
ASSIGNED CATEGORY: False
--
COMPOUND: CCCCCCCCCCCCCCCC[N+](C)(CCO)Cc1cnc[nH]1 (centres undefined)
ASSIGNED CATEGORY: True
--
COMPOUND: C/C=C(/CN/C(=C\[N+](=O)[O-])c1ccccc1)c1ccccc1
ASSIGNED CATEGORY: True
--
COMPOUND: Cc1c(Cl)nc(-c2ccccc2)nc1C(=O)CCl
ASSIGNED CATEGORY: True
--
COMPOUND: CC(CN(CC(=O)O)CC(=O)O)N(CC(=O)O)CC(=O)O.[Cl][Pd][Cl] (centres undefined)
ASSIGNED CATEGORY: True
--
COMPOUND: CS(=O)(=O)OC1COC2C(I)COC12 (centres undefined)
ASSIGNED CATEGORY: True
--
COMPOUND: COC(=O)C([NH-])c1ccccc1.COC(=O)C([NH-])c1ccccc1.[Cl][Pt+2][Cl] (centres undefined)
ASSIGNED CATEGORY: False
--
COMPOUND: O=c1ccccn1CCc1cccc2cc(O)ccc12
ASSIGNED CATEGORY: False

These measurements were taken from PubChem BioAssay (NCI).
